Test system: Hepatotoxicity
procedure-details: FDA HLAED, serum glutamic oxaloacetic transaminase (SGOT) increase
test-conditions: human
parameter-measured: SGOT Increase - Number of Reports

>>> obs_value("C=CC1=C(C(=O)O)N2C(=O)[C@@H](NC(=O)/C(=N\\OCC(=O)O)c3csc(N)n3)[C@H]2SC1")
">= 4"
>>> obs_value("O=C(O)c1cc(-c2ccc(F)cc2F)ccc1O")
"< 4"
>>> obs_value("NC(N)=Nc1nc(CSCCC(N)=NS(N)(=O)=O)cs1")
">= 4"
>>> obs_value("NC1=NC(=O)C(c2ccccc2)O1 (centres undefined)")
">= 4"
>>> obs_value("O=C(O)c1cn(C2CC2)c2cc(N3CCNCC3)c(F)cc2c1=O")
">= 4"
>>> obs_value("CC1=C(/C=C/C(C)=C/C=C/C(C)=C/C(=O)O)C(C)(C)CCC1")
"< 4"
>>> obs_value("O=C(NCC(O)CO)c1c(I)c(C(=O)NCC(O)CO)c(I)c(N(CCO)C(=O)CO)c1I (centres undefined)")
"< 4"
>>> obs_value("CC(C)C(=O)Nc1ccc([N+](=O)[O-])c(C(F)(F)F)c1 [FLUTAMIDE]")
">= 4"
>>> obs_value("CC(=O)CCCCn1c(=O)c2c(ncn2C)n(C)c1=O")
">= 4"
>>> obs_value("COc1ccc(C(=O)Nc2ccccc2CCC2CCCCN2C)cc1 (centres undefined) [ENCAINIDE]")
">= 4"
>>> obs_value("C=C1c2c(Cl)ccc(O)c2C(=O)C2=C(O)[C@]3(O)C(=O)C(C(N)=O)=C(O)[C@@H](N(C)C)[C@@H]3[C@@H](O)[C@H]12")
"< 4"
>>> obs_value("CCN(CC)CCNC(=O)c1ccc(N)cc1 [PROCAINAMIDE]")
"< 4"
>>> obs_value("C[C@H]1C[C@H]2[C@@H]3C[C@H](F)C4=CC(=O)C=C[C@]4(C)[C@@]3(F)[C@@H](O)C[C@]2(C)[C@@]1(O)C(=O)CCl")
"< 4"
>>> obs_value("Oc1ccc2c3c1O[C@H]1[C@@H](O)CC[C@@]4(O)[C@@H](C2)N(CC2CCC2)CC[C@]314")
"< 4"

====

Test system: Hepatotoxicity
procedure-details: FDA HLAED, liver enzyme composite activity
test-conditions: human, Liver
parameter-measured: Composite Activity - Score

>>> obs_value("c1ccc([C@H]2CN3CCSC3=N2)cc1")
"Active"
>>> obs_value("Clc1ccc2nsnc2c1NC1=NCCN1")
"Inactive"
>>> obs_value("CC(C)(C(=O)O)c1ccc(C(O)CCCN2CCC(C(O)(c3ccccc3)c3ccccc3)CC2)cc1 (configuration not stated) [FEXOFENADINE]")
"Inactive"
>>> obs_value("OC(Cn1cncn1)(Cn1cncn1)c1ccc(F)cc1F")
"Active"
>>> obs_value("NCCNCCNCCN")
"Inactive"
>>> obs_value("CC(C)c1cccc(C(C)C)c1O")
"Inactive"
>>> obs_value("C#C[C@]1(O)CC[C@H]2[C@@H]3CCC4=CC(=O)CC[C@@H]4[C@H]3CC[C@@]21CC")
"Active"
>>> obs_value("Cc1cccc(Nc2ccccc2C(=O)O)c1C")
"Active"
>>> obs_value("CCCCc1oc2ccccc2c1C(=O)c1cc(I)c(OCCN(CC)CC)c(I)c1")
"Inactive"
>>> obs_value("CCCNCC(O)COc1ccccc1C(=O)CCc1ccccc1 (configuration not stated)")
"Active"
>>> obs_value("CC(=O)O[C@H]1C(=O)[C@@]2(C)[C@H]([C@H](OC(=O)c3ccccc3)[C@]3(O)C[C@H](OC(=O)[C@H](O)[C@@H](NC(=O)c4ccccc4)c4ccccc4)C(C)=C1C3(C)C)[C@]1(OC(C)=O)CO[C@@H]1C[C@@H]2O")
"Inactive"
>>> obs_value("NC(N)=Nc1nc(CSCCC(N)=NS(N)(=O)=O)cs1")
"Inactive"

====

Test system: Hepatotoxicity
procedure-details: FDA HLAED, serum glutamic pyruvic transaminase (SGPT) increase
test-conditions: human
parameter-measured: SGPT Increase - Activity Score

>>> obs_value("CC1=C(/C=C/C(C)=C/C=C/C(C)=C\\C(=O)O)C(C)(C)CCC1")
"Active"
>>> obs_value("O=C(O)c1cc(-c2ccc(F)cc2F)ccc1O")
"Inactive"
>>> obs_value("Nc1ccc(O)c(C(=O)O)c1")
"Inactive"
>>> obs_value("CC[C@@]1(O)C(=O)OCc2c1cc1n(c2=O)Cc2cc3c(CN(C)C)c(O)ccc3nc2-1")
"Inactive"
>>> obs_value("CCN(CC)CCNC(=O)c1cc(Cl)c(N)cc1OC [METOCLOPRAMIDE]")
"Inactive"
>>> obs_value("O=c1[nH]cnc2c1ncn2[C@H]1CC[C@@H](CO)O1")
"Active"
>>> obs_value("COC(=O)C1=C(C)NC(C)=C(C(=O)OCC(C)C)C1c1ccccc1[N+](=O)[O-] (stereo not given)")
"Inactive"
>>> obs_value("C[C@@H]1C[C@H]2[C@@H]3C[C@H](F)C4=CC(=O)C=C[C@]4(C)[C@@]3(F)[C@@H](O)C[C@]2(C)[C@@]1(O)C(=O)SCF")
"Inactive"
>>> obs_value("CCCc1c2oc(C(=O)O)cc(=O)c2cc2c(=O)cc(C(=O)O)n(CC)c12")
"Inactive"
>>> obs_value("Nc1nnc(-c2cccc(Cl)c2Cl)c(N)n1")
"Active"

====

System: Hepatotoxicity
procedure-details: FDA HLAED, serum glutamic pyruvic transaminase (SGPT) increase
test-conditions: human
parameter-measured: SGPT Increase - Number of Reports

>>> obs_value("CC1(C)S[C@@H]2[C@H](NC(=O)[C@H](NC(=O)N3CCN(S(C)(=O)=O)C3=O)c3ccccc3)C(=O)N2[C@H]1C(=O)O [MEZLOCILLIN]")
"< 4"
>>> obs_value("N#Cc1cc(NC(=O)C(=O)O)c(Cl)c(NC(=O)C(=O)O)c1 [LODOXAMIDE]")
"< 4"
>>> obs_value("CNCCC=C1c2ccccc2CCc2ccccc21 [NORTRIPTYLINE]")
"< 4"
>>> obs_value("Cc1cccc(Nc2ccncc2S(=O)(=O)NC(=O)NC(C)C)c1 [TORSEMIDE]")
"< 4"
>>> obs_value("CC(Cc1ccc(O)c(O)c1)C(C)Cc1ccc(O)c(O)c1 (stereo not given) [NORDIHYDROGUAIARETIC ACID]")
"< 4"
>>> obs_value("N[C@@H](C(=O)N[C@@H]1C(=O)N2C(C(=O)O)=C(Cl)CS[C@H]12)c1ccccc1 [CEFACLOR ANHYDROUS]")
">= 4"
>>> obs_value("Cc1cccc(C)c1OCC(C)N (stereo not given) [MEXILETINE]")
">= 4"
>>> obs_value("CC(C)C(=O)Nc1ccc([N+](=O)[O-])c(C(F)(F)F)c1 [FLUTAMIDE]")
">= 4"
>>> obs_value("CCC1(c2ccc(N)cc2)CCC(=O)NC1=O (stereo not given) [AMINOGLUTETHIMIDE]")
"< 4"
>>> obs_value("FCOC(C(F)(F)F)C(F)(F)F [SEVOFLURANE]")
"< 4"
>>> obs_value("COc1ccc(C(CN(C)C)C2(O)CCCCC2)cc1 (stereo not given) [VENLAFAXINE]")
">= 4"
>>> obs_value("CC(=O)Oc1c(C)cc(OCC(O)CNC(C)C)c(C)c1C (stereo not given) [METIPRANOLOL]")
"< 4"
>>> obs_value("COc1ccc(CCN(C)CCCC(C#N)(c2ccc(OC)c(OC)c2)C(C)C)cc1OC (stereo not given)")
"< 4"
>>> obs_value("CCN[C@@H](C)Cc1cccc(C(F)(F)F)c1 [DEXFENFLURAMINE]")
"< 4"
>>> obs_value("Nc1ncnc2c1ncn2[C@@H]1O[C@H](CO)[C@@H](O)[C@H]1O [ADENOSINE]")
"< 4"
>>> obs_value("O=C(c1ccccc1)c1ccc2n1CCC2C(=O)O (stereo not given) [KETOROLAC]")
">= 4"
>>> obs_value("CC1=C(/C=C/C(C)=C/C=C/C(C)=C\\C(=O)O)C(C)(C)CCC1 [ISOTRETINOIN]")
">= 4"
>>> obs_value("CNS(=O)(=O)Cc1ccc2[nH]cc(CCN(C)C)c2c1")
">= 4"
>>> obs_value("O=c1n(CCCN2CCN(c3cccc(Cl)c3)CC2)nc2ccccn12 [TRAZODONE]")
"< 4"
>>> obs_value("O=C(O)c1cc(/N=N/c2ccc(O)c(C(=O)O)c2)ccc1O [OLSALAZINE]")
"< 4"
>>> obs_value("C[C@@H]1C[C@H]2[C@@H]3CCC4=CC(=O)C=C[C@]4(C)[C@@]3(Cl)[C@@H](O)C[C@]2(C)[C@@]1(O)C(=O)CCl [MOMETASONE]")
"< 4"
>>> obs_value("COc1ccc(OC)c(C(O)CNC(=O)CN)c1 (stereo not given) [MIDODRINE]")
"< 4"
>>> obs_value("CC(C)(C)NC[C@H](O)COc1nsnc1N1CCOCC1 [TIMOLOL]")
"< 4"
>>> obs_value("CC(C)OC(=O)CCC/C=C\\C[C@@H]1[C@@H](CC[C@@H](O)CCc2ccccc2)[C@H](O)C[C@@H]1O [LATANOPROST]")
"< 4"
>>> obs_value("CCC(=O)O[C@H]1CC[C@H]2[C@@H]3CCC4=CC(=O)CC[C@]4(C)[C@H]3CC[C@]12C [TESTOSTERONE PROPIONATE]")
"< 4"

All values here come from ChEMBL document CHEMBL1697781.
